# test_summary: RP, Phenomenex Kinetex C18, 150 × 2.1 mm, 1.7 µm, 30 °C, 0.3 mL/min, estimated dead time 1.1 min; A: water + 0.1% formic acid, pH 3; B: acetonitrile + 0.1% formic acid, pH 3; gradient (min/%B) 0/2 14/100 17/100 17.1/2 25/2
# setup_conditions: stereoisomer not certain
Structures can show the parent of a compound that is named as a salt.
property_measured: LC retention time (min)
Give the quantity in min, number only.

Prompt line: Given the entry O=C(O)C(=O)Cc1ccccc1 [PHENYLPYRUVATE] , report its measured LC retention time.
Response line: 4.94

Prompt line: Given the entry O=c1ccn(C2CC(O)C(COP(=O)(O)O)O2)c(=O)[nH]1 (stereo unspecified) [DEOXYURIDINE-MONOPHOSPHATE] , report its measured LC retention time.
Response line: 1.41

Prompt line: Given the entry "Cc1cc2nc3[nH]c(=O)[nH]c(=O)c3nc2cc1C" , report its measured LC retention time.
Response line: 6.13

Prompt line: Given the entry COc1cc(C=CC(=O)O)ccc1O [FERULATE] , report its measured LC retention time.
Response line: 5.76

Prompt line: Given the entry NC(=O)c1ccc[n+](C2OC(COP(=O)(O)OP(=O)(O)OCC3OC(n4cnc5c(=O)[nH]cnc54)C(O)C3O)C(O)C2O)c1 (stereo unspecified) [NICOTINAMIDE HYPOXANTHINE DINUCLEOTIDE] , report its measured LC retention time.
Response line: 1.45

Prompt line: Given the entry CC(=O)NCCCC(=O)[O-] [4-ACETAMIDOBUTANOATE] , report its measured LC retention time.
Response line: 2.47

Prompt line: Given the entry O=C(O)c1ccc(=O)[nH]c1 [6-HYDROXYNICOTINATE] , report its measured LC retention time.
Response line: 2.61

Prompt line: Given the entry CC12CCC(=O)C=C1CCC1C2C(O)CC2(C)C1CCC2(O)C(=O)CO (stereo unspecified) , report its measured LC retention time.
Response line: 7.09

Prompt line: Given the entry "O=c1[nH]c(=O)c2[nH]cnc2[nH]1" , report its measured LC retention time.
Response line: 1.82

Prompt line: Given the entry CCCCC(CC)COC(=O)c1ccccc1C(=O)OCC(CC)CCCC (stereo unspecified) [BIS(2-ETHYLHEXYL)PHTHALATE] , report its measured LC retention time.
Response line: 9.02

Prompt line: Given the entry CC1NC(=O)NC1CCCCCC(=O)O (stereo unspecified) , report its measured LC retention time.
Response line: 5.18

Prompt line: Given the entry "CCCCCCCCCC(C)=O" , report its measured LC retention time.
Response line: 8.62

Prompt line: Given the entry O=C([O-])c1c[nH]c(=O)[nH]c1=O [URACIL 5-CARBOXYLATE] , report its measured LC retention time.
Response line: 1.8

Prompt line: Given the entry CC(C)CC(N)C(=O)O (stereo unspecified) , report its measured LC retention time.
Response line: 2.05

Prompt line: Given the entry "Nc1nc2nccnc2c(=O)[nH]1" , report its measured LC retention time.
Response line: 2.05

Prompt line: Given the entry CC(=O)C1CCC2C3CC=C4CC(OS(=O)(=O)O)CCC4(C)C3CCC12C (stereo unspecified) [PREGNENOLONE SULFATE] , report its measured LC retention time.
Response line: 8.69

Attribution: the RepoRT retention time repository (doi:10.1016/j.chroma.2019.01.023)
